target.under.test: Recombinant wild type LRRK2 protein (Homo sapiens (Human), UniProt Q5S007)
Sequence (Q5S007 whole entry): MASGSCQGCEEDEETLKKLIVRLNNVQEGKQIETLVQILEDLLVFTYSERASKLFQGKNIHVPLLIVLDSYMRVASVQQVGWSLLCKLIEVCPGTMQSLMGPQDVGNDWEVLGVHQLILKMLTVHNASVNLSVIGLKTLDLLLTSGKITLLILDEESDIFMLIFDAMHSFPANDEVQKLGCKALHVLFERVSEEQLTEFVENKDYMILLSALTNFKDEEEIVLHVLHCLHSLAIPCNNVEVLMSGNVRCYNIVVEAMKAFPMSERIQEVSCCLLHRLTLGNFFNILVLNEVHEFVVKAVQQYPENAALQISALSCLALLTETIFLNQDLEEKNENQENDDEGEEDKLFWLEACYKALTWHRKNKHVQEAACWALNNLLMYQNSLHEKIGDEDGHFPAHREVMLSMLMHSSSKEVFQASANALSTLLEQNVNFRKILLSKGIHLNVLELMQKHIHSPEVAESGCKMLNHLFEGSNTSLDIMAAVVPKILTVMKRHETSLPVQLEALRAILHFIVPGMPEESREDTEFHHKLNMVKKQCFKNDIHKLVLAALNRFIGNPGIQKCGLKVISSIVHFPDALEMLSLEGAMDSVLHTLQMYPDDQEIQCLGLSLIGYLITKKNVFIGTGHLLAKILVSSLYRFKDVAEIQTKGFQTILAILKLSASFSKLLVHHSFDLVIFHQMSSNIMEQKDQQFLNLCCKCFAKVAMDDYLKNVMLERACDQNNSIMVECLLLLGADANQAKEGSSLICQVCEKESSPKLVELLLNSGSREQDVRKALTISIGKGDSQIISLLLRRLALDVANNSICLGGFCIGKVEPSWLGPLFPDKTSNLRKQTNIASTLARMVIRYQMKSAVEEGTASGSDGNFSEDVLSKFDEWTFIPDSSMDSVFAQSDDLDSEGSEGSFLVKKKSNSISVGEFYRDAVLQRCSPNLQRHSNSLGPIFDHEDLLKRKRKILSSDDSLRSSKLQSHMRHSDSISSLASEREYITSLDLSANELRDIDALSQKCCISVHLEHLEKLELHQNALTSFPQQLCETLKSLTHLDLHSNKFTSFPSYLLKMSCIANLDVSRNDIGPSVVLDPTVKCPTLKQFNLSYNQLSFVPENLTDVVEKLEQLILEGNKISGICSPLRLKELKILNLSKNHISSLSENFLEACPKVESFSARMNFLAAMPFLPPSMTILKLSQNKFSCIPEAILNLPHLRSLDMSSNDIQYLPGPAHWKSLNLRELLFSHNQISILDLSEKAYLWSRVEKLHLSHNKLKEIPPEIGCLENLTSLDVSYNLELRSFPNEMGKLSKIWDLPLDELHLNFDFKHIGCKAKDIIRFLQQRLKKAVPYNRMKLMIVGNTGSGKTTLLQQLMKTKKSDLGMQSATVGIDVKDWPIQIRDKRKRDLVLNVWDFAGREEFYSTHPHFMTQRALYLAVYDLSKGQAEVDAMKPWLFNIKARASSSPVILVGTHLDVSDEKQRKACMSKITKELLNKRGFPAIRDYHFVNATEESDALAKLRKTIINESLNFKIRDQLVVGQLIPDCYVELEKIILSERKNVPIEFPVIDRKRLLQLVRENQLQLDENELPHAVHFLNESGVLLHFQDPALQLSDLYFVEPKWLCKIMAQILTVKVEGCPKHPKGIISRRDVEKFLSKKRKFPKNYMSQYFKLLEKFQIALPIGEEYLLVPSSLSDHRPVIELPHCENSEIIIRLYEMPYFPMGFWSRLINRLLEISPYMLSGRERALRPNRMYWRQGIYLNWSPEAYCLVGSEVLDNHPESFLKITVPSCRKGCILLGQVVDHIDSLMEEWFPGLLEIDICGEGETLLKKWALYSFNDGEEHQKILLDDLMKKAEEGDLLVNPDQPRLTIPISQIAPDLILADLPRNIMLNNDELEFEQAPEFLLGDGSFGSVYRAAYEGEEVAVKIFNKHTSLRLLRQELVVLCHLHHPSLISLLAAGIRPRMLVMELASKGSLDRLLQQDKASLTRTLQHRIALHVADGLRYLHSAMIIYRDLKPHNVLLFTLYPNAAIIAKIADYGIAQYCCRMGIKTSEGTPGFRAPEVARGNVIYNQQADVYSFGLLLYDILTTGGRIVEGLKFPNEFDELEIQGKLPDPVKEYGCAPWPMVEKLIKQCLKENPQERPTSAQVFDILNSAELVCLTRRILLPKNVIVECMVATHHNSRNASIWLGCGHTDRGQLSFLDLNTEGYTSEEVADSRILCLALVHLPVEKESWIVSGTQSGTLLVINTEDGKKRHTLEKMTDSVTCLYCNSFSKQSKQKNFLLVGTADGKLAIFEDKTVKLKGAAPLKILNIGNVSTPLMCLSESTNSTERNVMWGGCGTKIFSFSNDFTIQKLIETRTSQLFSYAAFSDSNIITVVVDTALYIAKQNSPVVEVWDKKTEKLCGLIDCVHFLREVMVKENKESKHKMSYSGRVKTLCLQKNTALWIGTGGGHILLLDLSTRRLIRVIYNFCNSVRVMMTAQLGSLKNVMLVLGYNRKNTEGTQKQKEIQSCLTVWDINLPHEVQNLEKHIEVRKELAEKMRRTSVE
run.description: LRRK2 kinase activity, LanthaScreen TR-FRET assay (wild type)
reported.conditions: LRRKtide 400 nM, 25 μM ATP, 60 min; read-out: LRRK2 WT IC50
pIC50: −log10 of the molar value.
# pIC50 annotations

INSERT INTO assay_data (structure_smiles, target_under_test, measured_attribute, reported_value) VALUES
  ('Cc1c(C(=O)Nc2ccc3[nH]nc(-c4ccccc4)c3c2)nc(C#N)n1C', 'Recombinant wild type LRRK2 protein (Homo sapiens (Human), UniProt Q5S007)', 'pIC50', '6.00 to 7.00');

I am curious: what pIC50 value has been reported for Cc1cc(C#N)cnc1C(=O)Nc1ccc2[nH]nc(Br)c2c1 ? 5.00 to 6.00

One more compound: Cc1cc(C#N)cnc1C(=O)Nc1ccc2[nH]nc(C3COC3)c2c1 5.00 to 6.00

One more compound: N#Cc1ccc(C(=O)Nc2ccc3[nH]nc(-c4ccoc4)c3c2)c2ncccc12 6.00 to 7.00
